Target: T1, GFP-9S library array, motif 4 ND D124Q (synthetic construct, D124Q)
T1 chain: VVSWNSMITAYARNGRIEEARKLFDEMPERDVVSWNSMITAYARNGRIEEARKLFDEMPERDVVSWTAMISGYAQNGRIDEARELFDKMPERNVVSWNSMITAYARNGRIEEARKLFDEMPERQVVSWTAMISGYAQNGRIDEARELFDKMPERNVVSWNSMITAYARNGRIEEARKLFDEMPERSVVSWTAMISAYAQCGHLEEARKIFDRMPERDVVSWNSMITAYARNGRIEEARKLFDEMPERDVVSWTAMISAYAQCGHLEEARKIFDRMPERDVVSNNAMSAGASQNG
Experiment: high-throughput RNA pulldown from lysate on Ni-NTA beads; HRP: 50 mM Tris pH 8, 150 mM NaCl, 1 mM beta-mercaptoethanol, 50 ug/ml BSA, 3 ug/ml yeast RNA, 0.5% heparin; ITC and FP: Tris pH 8, 200 mM KCl, 5% glycerol; MST: 50 mM Tris pH 8, 200 mM NaCl, 1 mM DTT, BSA, heparin, 0.05% Tween 20
Details: tags: N-terminal His-eGFP; label: 5' IRDye 800CW
QUANTITY: Kd
Show the value, then the unit it is measured in.

Which Kd is listed for AUUAUACGUGA (ssRNA) [IR-rpoA-U] ?
25.9 nM

--- query ---
What value of Kd has been recorded for this entry: AUUAAACGUGA (ssRNA) [IR-rpoA-A]
490 nM
